The entries below come with measured kon values attached.
Target: T1, human IL13 (human, UniProt P35225 35-146, biotinylated in the SPR assays (sites not given))
T1 construct: Peprotech; also called hIL13; recombinant human IL13
T1 sequence (P35225 other isoform, or with tags, fused parts or gaps limits assumed): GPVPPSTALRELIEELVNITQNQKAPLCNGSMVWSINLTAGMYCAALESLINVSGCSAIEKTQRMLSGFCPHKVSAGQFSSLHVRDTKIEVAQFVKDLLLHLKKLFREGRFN
Test: SPR BIAcore, biotin-IL13 on SA chip, global fit
Number in M⁻¹ s⁻¹, nothing else.

Guide cases for kon, answers given:
Binder	Attribute measured	Recorded measurement
9E11 (designed binder, N-Cap-(AR)3-C-Cap) DLGKKLLEAARAGQDDEVRILMANGADVNASDIYGSTPLHLAARHGHLEIVEVLLKNGADVNANDMIGDTPLHLAAYHGHLEIVEVLLKHGADVNASDITGETPLHLAAHNGHLEIVEVLLKYGADVNAQDKFGKTAFDISIDNGNEDLAEILQKLN	kon	640000
6G11 (designed binder, N-Cap-(AR)3-C-Cap) DLGKKLLEAARAGQDDEVRILMANGADVNAEDILGITPLHLAAHHGHLEIVEVLLKHGADVNANDFAGYTPLHLAAVYGHLEIVEVLLKYGADVNATDAWGETPLHLAAYTGHLEIVEVLLKHDADVNAQDKFGKTAFDISIDNGNEDLAEILQKLN	kon	754000
10A6 (designed binder, N-Cap-(AR)2-C-Cap, only 2 ARs) DLGKKLLEAARAGQDDEVRILMANGADVNAIDHFDSTPLHLAARHGHLEIVEVLLKNGADVNADDFLGDTPLHLAAYHGHLDIVEVLLKHGADVNAQDKFGKTAFDISIDNGNEDLAEILQKLN	kon	2.76e+06

Consider the additional binder presented here.
**Query** So what does the record say about kon for 5D12 (designed binder, N-Cap-(AR)3-C-Cap) DLGKKLLEAARAGQDDEVRILMANGADVNAVDDYGSTPLHLAARQGHLEIVEVLLKNGADVNADDFIGDTPLHLAAFKGHLEIVEVLLKNGADVNASDITGETPLHLAATAGHLEIVEVLLKHGADVNAQDKFGKTAFDISIDNGNEDLAEILQKLN ?
**Result** 1.1e+06
